- TARGET DESC: 5'-AMP-activated protein kinase catalytic subunit alpha-2 (Homo sapiens) (UniProt P54646);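 note: mean inhibition measured on the AMPK complex of alpha2, beta1 and gamma1 subunits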
- Sequence (P54646 whole entry, looked up): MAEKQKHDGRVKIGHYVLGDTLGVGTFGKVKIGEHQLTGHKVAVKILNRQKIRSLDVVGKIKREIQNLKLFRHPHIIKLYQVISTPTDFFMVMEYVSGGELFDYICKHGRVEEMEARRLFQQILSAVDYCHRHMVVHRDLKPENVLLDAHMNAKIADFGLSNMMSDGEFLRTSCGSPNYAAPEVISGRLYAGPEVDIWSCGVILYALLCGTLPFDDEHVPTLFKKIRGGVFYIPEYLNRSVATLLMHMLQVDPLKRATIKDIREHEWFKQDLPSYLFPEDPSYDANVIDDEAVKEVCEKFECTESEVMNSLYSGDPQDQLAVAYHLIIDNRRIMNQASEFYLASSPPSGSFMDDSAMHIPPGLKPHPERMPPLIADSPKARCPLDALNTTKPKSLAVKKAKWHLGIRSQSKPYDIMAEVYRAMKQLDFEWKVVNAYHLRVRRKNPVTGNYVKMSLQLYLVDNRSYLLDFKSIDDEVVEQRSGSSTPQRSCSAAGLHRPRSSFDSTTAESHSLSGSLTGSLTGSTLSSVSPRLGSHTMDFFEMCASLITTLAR
- MEASUREMENT SETUP: at 0.1 µM
- Description: GSK_PKIS: AMPKA2 (A2B1G1) mean inhibition at 0.1 uM [Nanosyn]
Here the recorded inhibition is given for each entry.
Could you give me the number in %? Just the number is fine.

CCN1CCC(CC(=O)Nc2n[nH]c3nnc(-c4cccc(F)c4F)cc23)CC1 : 2.36
CCOc1ccc2c(-c3ccnc(Nc4cccc(C(F)(F)F)c4)n3)cnn2n1 : 0.22
CNC(=O)c1cccc(C#Cc2cncnc2Nc2ccc(OCc3cccc(F)c3)c(Cl)c2)c1 : -3.97
CS(=O)(=O)CCNCc1ccc(-c2ccc3ncnc(Nc4ccc(OCc5ccccc5)c(C(F)(F)F)c4)c3c2)o1 : -6.64
CCn1c(-c2nonc2N)nc2ccccc21 : 0.31

State the recorded inhibition for this entry: Nc1nc(-c2cccc(Cl)c2)c(-c2ccc3ncccc3n2)s1
3.05

State the recorded inhibition for this entry: CC(C)COC(=O)c1ccc2c(c1)/C(=C/Nc1ccc(S(N)(=O)=O)cc1)C(=O)N2
5.83

State the recorded inhibition for this entry: CCNC(=O)O[C@H]1CN[C@H](C#Cc2cc3ncnc(Nc4ccc(OCc5cccc(F)c5)c(Cl)c4)c3s2)C1
0.44

State the recorded inhibition for this entry: N#Cc1c(NC(=O)CN2CCOCC2)sc2c1CCCC2
1.66

State the recorded inhibition for this entry: COc1ccc(-c2oc3ncnc(N)c3c2-c2ccc(NC(=O)Nc3cc(C(F)(F)F)ccc3F)cc2)cc1
1.55

State the recorded inhibition for this entry: Nc1nc(-c2ccc(F)cc2)c(-c2ccc3ncccc3n2)s1
1.85

State the recorded inhibition for this entry: Fc1ccc(-c2nn3ncccc3c2-c2ccnc(Nc3ccc4c(c3)OCCO4)n2)cc1
3.53

----------
- TARGET DESC: Serine/threonine-protein kinase Chk2 (Homo sapiens);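 note: reported value is the mean inhibition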
- MEASUREMENT SETUP: at 1 µM
TEST READOUT: inhibition (%)
Could you give me the number in %? Just the number is fine.

Please review the following examples before continuing.
COc1ccc(-c2oc3ncnc(N)c3c2-c2ccc(NC(=O)Nc3cc(C(F)(F)F)ccc3F)cc2)cc1 : 3.88
CC(=O)Nc1cccc(C#Cc2cncnc2Nc2ccc(OCc3cccc(F)c3)c(Cl)c2)c1 : -1.77

// moving on: another record for inhibition
What value of inhibition on Serine/threonine-protein kinase Chk2 (Homo sapiens) does COC(=O)Nc1nc2ccc(Oc3ccc(NC(=O)Nc4cccc(Cl)c4)cc3)cc2[nH]1 have?
0.53

----------
- TARGET DESC: Ribosomal protein S6 kinase alpha-6 (Homo sapiens) (UniProt Q9UK32);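 note: each value is a mean inhibition of RSK4 from a GSK PKIS panel screen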
- Sequence (Q9UK32 whole entry): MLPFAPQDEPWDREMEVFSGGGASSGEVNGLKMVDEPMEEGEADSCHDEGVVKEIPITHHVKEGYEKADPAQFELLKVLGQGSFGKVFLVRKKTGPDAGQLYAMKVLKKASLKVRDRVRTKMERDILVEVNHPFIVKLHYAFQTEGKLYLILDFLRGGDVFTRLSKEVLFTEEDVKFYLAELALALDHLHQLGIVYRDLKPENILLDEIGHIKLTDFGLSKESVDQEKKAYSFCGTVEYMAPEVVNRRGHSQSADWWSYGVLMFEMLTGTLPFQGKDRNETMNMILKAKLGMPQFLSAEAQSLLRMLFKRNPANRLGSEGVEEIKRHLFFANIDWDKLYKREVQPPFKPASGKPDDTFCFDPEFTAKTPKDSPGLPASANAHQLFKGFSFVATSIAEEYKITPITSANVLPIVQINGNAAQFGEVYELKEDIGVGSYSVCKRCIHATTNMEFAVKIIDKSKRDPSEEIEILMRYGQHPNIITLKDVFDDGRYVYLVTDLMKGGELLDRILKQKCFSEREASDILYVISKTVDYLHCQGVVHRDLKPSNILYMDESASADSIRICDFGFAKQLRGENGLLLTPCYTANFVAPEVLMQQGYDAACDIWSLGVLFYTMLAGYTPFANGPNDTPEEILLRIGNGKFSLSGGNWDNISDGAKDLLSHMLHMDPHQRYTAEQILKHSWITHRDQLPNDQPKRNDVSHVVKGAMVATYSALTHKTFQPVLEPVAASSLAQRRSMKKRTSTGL
- MEASUREMENT SETUP: at 1 µM
TEST READOUT: inhibition

c1ccc(COc2ccc(Nc3ncnc4ccc(-c5ccco5)cc34)cc2)cc1 : -0.53%
O=C(Nc1n[nH]c2cc(-c3ccc(F)cc3)ccc12)C1CC1 : 4.8%
CCn1c(-c2nonc2N)nc2ccccc21 : 10.4%
CC1=C(C(=O)Nc2cc(Cl)c3[nH]ncc3c2)C(c2ccc(C(F)(F)F)cc2)CC(=O)N1 (stereo unspecified) : 36.4%
CCOc1ccc2c(-c3ccnc(Nc4cccc(C(F)(F)F)c4)n3)cnn2n1 : -0.99%

What value of inhibition on Ribosomal protein S6 kinase alpha-6 (Homo sapiens) (UniProt Q9UK32) does COc1cc(N2CCN(C(C)C)CC2)ccc1Nc1nc(Nc2ccc(F)cc2C(N)=O)c2cc[nH]c2n1 have?
54.8%

What value of inhibition on Ribosomal protein S6 kinase alpha-6 (Homo sapiens) (UniProt Q9UK32) does CCn1cc(-c2ccnc3[nH]ccc23)c(-c2cccc(NC(=O)Nc3ccc(OCc4ccccc4)cc3)c2)n1 have?
-1.2%

What value of inhibition on Ribosomal protein S6 kinase alpha-6 (Homo sapiens) (UniProt Q9UK32) does COc1ccc2c(-c3ccnc(Nc4cccc(OC(F)(F)F)c4)n3)cnn2n1 have?
3.03%
